Provenance of the data: patent US20150104459A1

This listing pairs binders with measured Trimeric HA Binding RLU.
target: recombinant soluble homotrimeric HA of A/Anhui/1/05 (H5N1) (Influenza A virus A/Anhui/1/2005 (H5N1)); assay: HA microarray, BCC supernatant; settings: remark: other sources report otherwise
Reply with a number, then the unit it belongs to.

Solved cases (3 shown):
BINDER: TCN-552 (5249_I23) (antibody, V domains shown) VH: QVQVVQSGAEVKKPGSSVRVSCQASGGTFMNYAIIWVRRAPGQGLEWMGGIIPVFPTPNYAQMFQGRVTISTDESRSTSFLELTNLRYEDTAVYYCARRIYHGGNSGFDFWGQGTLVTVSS VL: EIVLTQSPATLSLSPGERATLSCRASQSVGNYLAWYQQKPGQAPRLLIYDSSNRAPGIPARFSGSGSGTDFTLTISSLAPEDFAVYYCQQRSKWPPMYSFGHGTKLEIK
MEAS VALUE: 4160 RLU
--
BINDER: TCN-553 (5261_C18) (antibody, V domains shown) VH: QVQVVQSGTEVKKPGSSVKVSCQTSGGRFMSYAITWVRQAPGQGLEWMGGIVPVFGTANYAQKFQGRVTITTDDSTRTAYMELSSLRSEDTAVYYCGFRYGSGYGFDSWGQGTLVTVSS VL: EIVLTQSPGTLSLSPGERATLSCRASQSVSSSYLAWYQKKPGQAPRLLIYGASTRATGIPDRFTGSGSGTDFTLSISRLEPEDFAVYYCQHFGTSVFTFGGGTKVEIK
MEAS VALUE: 12600 RLU
--
BINDER: TCN-546 (5089_L08) (antibody, V domains shown) VH: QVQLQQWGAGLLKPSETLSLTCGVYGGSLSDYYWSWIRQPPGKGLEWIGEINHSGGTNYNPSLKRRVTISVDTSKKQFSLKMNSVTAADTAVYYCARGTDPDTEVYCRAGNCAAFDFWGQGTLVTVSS VL: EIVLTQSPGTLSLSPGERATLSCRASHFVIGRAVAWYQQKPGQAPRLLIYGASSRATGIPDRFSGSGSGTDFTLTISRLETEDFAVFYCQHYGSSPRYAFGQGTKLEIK
MEAS VALUE: 2040 RLU

Proceed to the following item.
**Q:** Entry TCN-527 (5086_C06) (antibody, V domains shown) VH: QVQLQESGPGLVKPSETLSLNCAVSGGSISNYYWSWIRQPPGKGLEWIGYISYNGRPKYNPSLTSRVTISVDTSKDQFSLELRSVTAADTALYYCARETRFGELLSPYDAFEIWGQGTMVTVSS VL: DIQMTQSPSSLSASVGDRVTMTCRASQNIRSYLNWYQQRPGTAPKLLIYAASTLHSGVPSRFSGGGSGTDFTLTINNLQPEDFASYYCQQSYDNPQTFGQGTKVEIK needs its Trimeric HA Binding RLU filled in; supply it.
**A:** 21400 RLU
